The measured values listed here are drawn from paper PMC8217813.

target: HLA A*0301 (Homo sapiens, UniProt P04439)
Peptide text beside a SMILES is read from it.
Measured pIC50 by item
The value called pIC50 is obtained by taking minus log10 of the concentration in mol/L.

{"COMPOUND": "CC[C@H](C)[C@H](NC(=O)[C@@H](N)CCCNC(=N)N)C(=O)N[C@@H](CCCCN)C(=O)N1CCC[C@H]1C(=O)NCC(=O)N[C@@H](CO)C(=O)N[C@@H](C)C(=O)N[C@@H](CC(=O)O)C(=O)N[C@@H](CCCCN)C(=O)O [Cluster 345_CVX79] (H-RIKPGSADK-OH)", "RESULT_VALUE": 4.75}
{"COMPOUND": "CC(C)C[C@H](NC(=O)[C@@H](N)CCCCN)C(=O)N[C@@H](CCCNC(=N)N)C(=O)N[C@@H](CCCCN)C(=O)N1CCC[C@H]1C(=O)N[C@@H](CCCCN)C(=O)N[C@@H](Cc1c[nH]cn1)C(=O)N[C@@H](CCCCN)C(=O)N[C@@H](CCCCN)C(=O)O", "RESULT_VALUE": 5.51}
{"COMPOUND": "CC[C@H](C)[C@H](NC(=O)[C@H](CC(=O)O)NC(=O)[C@H](CC(N)=O)NC(=O)[C@H](C)NC(=O)[C@H](Cc1ccc(O)cc1)NC(=O)[C@H](CC(=O)O)NC(=O)[C@H](CC(C)C)NC(=O)[C@@H](N)CCC(=O)O)C(=O)N[C@@H](CCC(=O)O)C(=O)N[C@@H](CCCCN)C(=O)O [Cluster 357_3D7] (H-ELDYANDIEK-OH)", "RESULT_VALUE": 3.25}

Here's the next entry for you.
Query: Value wanted: pIC50 (HLA A*0301 (Homo sapiens, UniProt P04439)) of entry CC[C@H](C)[C@H](NC(=O)[C@@H](N)CCCNC(=N)N)C(=O)N[C@@H](CCCCN)C(=O)N1CCC[C@H]1C(=O)NCC(=O)N[C@@H](CO)C(=O)N[C@@H](C)C(=O)N[C@@H](CC(N)=O)C(=O)N[C@@H](CCCCN)C(=O)O [Cluster 345_3D7] (H-RIKPGSANK-OH)
Result: 4.67
